# protocol.details: physchem
# test.settings: octanol/water
# Description: Partition coefficient (logP)
property.name: logP
Give your answer as a number; write no unit.

given.smiles: CN(C)CCn1c(=O)c2ccc(NCCNCCO)c3c(=O)c4ccccc4n(c1=O)c23
property.name: logP
recorded.measurement: 0.91
//
given.smiles: CN(C)CCn1c(=O)c2ccc(NCCN)c3c(=O)c4ccccc4n(c1=O)c23
property.name: logP
recorded.measurement: 1.21

Query: Value lookup for logP; key = `COc1ccc2c(c1)c(=O)c1c(NCCNCCO)ccc3c(=O)n(CCN(C)C)c(=O)n2c31`
Response: 0.25

Query: Value lookup for logP; key = `CN(C)CCNc1ccc2c(=O)n(CCN(C)C)c(=O)n3c4ccc([N+](=O)[O-])cc4c(=O)c1c23`
Response: 2.32

Query: Value lookup for logP; key = `Br.Br.CN(C)CCNc1ccc2c(=O)n(CCN(C)C)c(=O)n3c4ccc(O)cc4c(=O)c1c23`
Response: 1.5

---

As an illustration, consider measured K app for compounds on Nucleic Acid.
Give your answer as a number; write no unit.

given.smiles: CN(C)CCn1c(=O)c2ccc(NCCNCCO)c3c(=O)c4ccccc4n(c1=O)c23
property.name: K app
recorded.measurement: 1e-07

Query: K app of `CCN(CC)CCNc1ccc2c(=O)n(CCN(C)C)c(=O)n3c4ccccc4c(=O)c1c23` on Nucleic Acid?
Response: 1.9e-07

Query: K app of `Br.Br.CN(C)CCNc1ccc2c(=O)n(CCN(C)C)c(=O)n3c4ccc(O)cc4c(=O)c1c23` on Nucleic Acid?
Response: 3.2e-07

Query: K app of `CN(C)CCN(C)c1ccc2c(=O)n(CCN(C)C)c(=O)n3c4ccccc4c(=O)c1c23` on Nucleic Acid?
Response: 7.3e-08

Query: K app of `CN(C)CCn1c(=O)c2ccc(NCCN3CCNCC3)c3c(=O)c4ccccc4n(c1=O)c23` on Nucleic Acid?
Response: 3.3e-08

Query: K app of `COc1cc2c(=O)c3c(NCCN(C)C)ccc4c(=O)n(CCN(C)C)c(=O)n(c2cc1OC)c43` on Nucleic Acid?
Response: 3.2e-07

Query: K app of `COc1ccc2c(c1)c(=O)c1c(NCCNCCO)ccc3c(=O)n(CCN(C)C)c(=O)n2c31` on Nucleic Acid?
Response: 3.4e-07

Query: K app of `CN(C)CCNc1ccc2c(=O)n(CCN(C)C)c(=O)n3c4ccc(N)cc4c(=O)c1c23.Cl.Cl.Cl` on Nucleic Acid?
Response: 5.7e-07

Query: K app of `CN(C)CCn1c(=O)c2ccc(Cl)c3c(=O)c4ccccc4n(c1=O)c23` on Nucleic Acid?
Response: 6.5e-09

Query: K app of `O=C1c2c(O)ccc(O)c2C(=O)c2c(NCCNCCO)ccc(NCCNCCO)c21` on Nucleic Acid?
Response: 3.2e-06

Query: K app of `CN(C)CCn1c(=O)c2ccc(NCCN)c3c(=O)c4ccccc4n(c1=O)c23` on Nucleic Acid?
Response: 7.9e-07

Query: K app of `CN(C)CCNc1ccc2c(=O)n(CCN(C)C)c(=O)n3c4ccc([N+](=O)[O-])cc4c(=O)c1c23` on Nucleic Acid?
Response: 2.6e-07

Query: K app of `CN(C)CCn1c(=O)c2ccc(NCCNCCO)c3c(=O)c4cc(O)ccc4n(c1=O)c23` on Nucleic Acid?
Response: 2.8e-08
